- Tested On: Cyclic di-GMP phosphodiesterase RocR (Pseudomonas aeruginosa (strain ATCC 15692 / PAO1 / 1C / PRS 101 / LMG12228))
- Sequence (Q9HX69 whole entry): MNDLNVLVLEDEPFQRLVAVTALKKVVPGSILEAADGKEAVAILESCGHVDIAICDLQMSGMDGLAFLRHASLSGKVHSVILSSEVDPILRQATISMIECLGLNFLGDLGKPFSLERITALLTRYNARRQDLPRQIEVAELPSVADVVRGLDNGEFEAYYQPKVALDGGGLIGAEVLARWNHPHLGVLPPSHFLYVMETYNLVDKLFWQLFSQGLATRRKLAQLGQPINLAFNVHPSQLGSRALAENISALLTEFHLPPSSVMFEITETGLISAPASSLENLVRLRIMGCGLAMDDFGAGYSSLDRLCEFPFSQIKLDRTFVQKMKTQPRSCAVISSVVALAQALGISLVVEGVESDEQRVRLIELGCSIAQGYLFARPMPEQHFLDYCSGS
- Assay Info: Competitive binding affinity to Pseudomonas aeruginosa PAO1 His6-tagged RocR expressed in Escherichia coli BL21 (DE3) after 5 mins in presence of [32P]-c-di-GMP
Property Name: IC50
Field: value (include unit after the number)

Study these solved cases before continuing.
1) CO[C@@H]1[C@@H]2OP(=O)(O)OC[C@H]3O[C@@H](n4cnc5c(=O)[nH]c(N)nc54)[C@H](OC)[C@@H]3OP(=O)(O)OC[C@H]2O[C@H]1n1cnc2c(=O)[nH]c(N)nc21 6410 nM
2) Nc1nc2c(ncn2[C@H]2C[C@@H]3OP(=O)(O)OC[C@H]4O[C@@H](n5cnc6c(=O)[nH]c(N)nc65)C[C@@H]4OP(=O)(O)OC[C@H]3O2)c(=O)[nH]1 20 nM
3) Nc1nc2c(ncn2[C@@H]2O[C@@H]3CO[P@](=O)(O)O[C@H]4[C@@H](O)[C@H](n5cnc6c(=O)[nH]c(N)nc65)O[C@@H]4CO[P@](=O)(O)O[C@H]3[C@H]2O)c(=O)[nH]1 20 nM

Now take the following compound into account.
Field IC50 (entry Nc1nc2c(ncn2[C@@H]2O[C@@H]3COP(=O)(O)O[C@H]4[C@@H](F)[C@H](n5cnc6c(=O)[nH]c(N)nc65)O[C@@H]4COP(=O)(O)O[C@H]3[C@H]2F)c(=O)[nH]1 ) reads 720 nM
